Tested on: FAAH Selectivity
Assay: LYPLA1/LYPLA2 inhibition with serine hydrolase anti-target selectivity, late-stage follow-up, selectivity assay for LYPLA1/LYPLA2 inhibitor project, cell lysate, mouse brain membrane proteome, FP-Rh fluorescence, powders (AID 743117)
Conditions: gel-based ABPP FP-Rh fluorescence, measured here: FAAH Selectivity, anti-target concentration >50% inhibition, stronger effect = lower value
TEST READOUT: concentration for >50% inhibition (µM)

[[record]]
compound = "CN(C)c1ccc(C(=O)N2CCN3C(=O)N(OC(=O)N4CCC(CCc5ccc(Cl)cc5)CC4)C(=O)C3C2)cc1 (stereo not given)"
val = 10

[[record]]
compound = "O=C(Cc1ccccc1)N1CCN2C(=O)N(OC(=O)N3CCC(CCc4ccc(Cl)cc4)CC3)C(=O)C2C1 (stereo not given)"
val = 1

[[record]]
compound = "O=C(ON1C(=O)C2CN(CCc3ccccc3)CCN2C1=O)N1CCC(CCc2ccc(Cl)cc2)CC1 (stereo not given)"
val = 10


a. O=C(ON1C(=O)C2CN(C(=O)c3ccc(F)c([N+](=O)[O-])c3)CCN2C1=O)N1CCC(CCc2ccc(Cl)cc2)CC1 (stereo not given)
b. CC(C)(C)OC(=O)N1CCN2C(=O)N(OC(=O)N3CCC(CCc4ccc(Cl)cc4)CC3)C(=O)C2C1 (stereo not given)
Query :: API: POST /compare with a and b ; response names the item with higher concentration for >50% inhibition. Return value: the label identifying the chosen record.
Result :: a

====

System: MAGL Selectivity
Test: LYPLA1/LYPLA2 inhibition with serine hydrolase anti-target selectivity, late-stage follow-up, selectivity assay for LYPLA1/LYPLA2 inhibitor project, cell lysate, mouse brain membrane proteome, FP-Rh fluorescence, powders (AID 743117)
Settings: gel-based ABPP FP-Rh fluorescence, measured here: MAGL Selectivity, anti-target concentration >50% inhibition, stronger effect = lower value
TEST READOUT: concentration for >50% inhibition (µM)

[[record]]
compound = "O=C(ON1C(=O)C2CN(C(=O)c3ccc(Br)cc3)CCN2C1=O)N1CCC(CCc2ccc(Cl)cc2)CC1 (stereo not drawn)"
test_readout = "concentration for >50% inhibition"
unit = "µM"
val = 100


1. O=C(ON1C(=O)C2CN(C(=O)N3CCOCC3)CCN2C1=O)N1CCC(CCc2ccc(Cl)cc2)CC1 (stereo not drawn)
2. O=C(ON1C(=O)C2CN(CCc3ccccc3)CCN2C1=O)N1CCC(CCc2ccc(Cl)cc2)CC1 (stereo not drawn)
Query :: API: POST /compare with 1 and 2 ; response names the item with higher concentration for >50% inhibition. Return value: the label identifying the chosen record.
Result :: 1

====

Tested on: ABHD12 Selectivity
Assay: LYPLA1/LYPLA2 inhibition with serine hydrolase anti-target selectivity, late-stage follow-up, selectivity assay for LYPLA1/LYPLA2 inhibitor project, cell lysate, mouse brain membrane proteome, FP-Rh fluorescence, powders (AID 743117)
Conditions: gel-based ABPP FP-Rh fluorescence, measured here: ABHD12 Selectivity, anti-target concentration >50% inhibition, stronger effect = lower value
TEST READOUT: concentration for >50% inhibition (µM)

[[record]]
compound = "O=C(ON1C(=O)C2CN(C(=O)N3CCCCC3)CCN2C1=O)N1CCC(CCc2ccc(Cl)cc2)CC1 (stereo not drawn)"
unit = "µM"
val = 10

[[record]]
compound = "CC(C)(C)OC(=O)N1CCN2C(=O)N(OC(=O)N3CCC(CCc4ccc(Cl)cc4)CC3)C(=O)C2C1 (stereo not drawn)"
unit = "µM"
val = 10

[[record]]
compound = "CC(C)(C)CC(=O)N1CCN2C(=O)N(OC(=O)N3CCC(CCc4ccc(Cl)cc4)CC3)C(=O)C2C1 (stereo not drawn)"
unit = "µM"
val = 10

